# target_desc: LecA (Pseudomonas aeruginosa, UniProt Q05097)
# Construct: made in house
# Sequence (Q05097 whole entry): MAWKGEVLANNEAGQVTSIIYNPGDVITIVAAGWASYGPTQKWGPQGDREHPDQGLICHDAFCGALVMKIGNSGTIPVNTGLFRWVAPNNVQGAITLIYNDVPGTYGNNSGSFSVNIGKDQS
# procedure_summary: Isothermal titration microcalorimetry (ITC) with LecA
# Format: binding
# condition: ITC average, 25 °C, TBS/Ca2+ buffer (5% DMSO for I2 and J2), N=3
metric_name: -TΔS (kcal/mol)
Your answer should be a plain number; it is taken to be in kcal/mol.

// worked examples, -TΔS included
record_smiles	unit_spec	-TΔS
O=C(CCc1ccc(O[C@@H]2O[C@H](CO)[C@H](O)[C@H](O)[C@H]2O)cc1)Nc1ccc(OCCCOc2ccc(NC(=O)CCc3ccc(O[C@@H]4O[C@H](CO)[C@H](O)[C@H](O)[C@H]4O)cc3)cn2)nc1	kcal/mol	13.7
O=C(CCc1ccc(O[C@@H]2O[C@H](CO)[C@H](O)[C@H](O)[C@H]2O)cc1)Nc1ccc(CCc2ccc(NC(=O)CCc3ccc(O[C@@H]4O[C@H](CO)[C@H](O)[C@H](O)[C@H]4O)cc3)cc2S(=O)(=O)O)c(S(=O)(=O)O)c1	kcal/mol	9.4
O=C(CCc1ccc(O[C@@H]2O[C@H](CO)[C@H](O)[C@H](O)[C@H]2O)cc1)Nc1ccc(OCCCCOc2ccc(NC(=O)CCc3ccc(O[C@@H]4O[C@H](CO)[C@H](O)[C@H](O)[C@H]4O)cc3)cn2)nc1	kcal/mol	3.8
COc1ccc(NC(=O)CCc2ccc(O[C@@H]3O[C@H](CO)[C@H](O)[C@H](O)[C@H]3O)cc2)cn1	kcal/mol	3.8

Attention now shifts to the item below.
*Q* // returns reported -TΔS for input "Cc1ccc(NC(=O)CCc2ccc(O[C@@H]3O[C@H](CO)[C@H](O)[C@H](O)[C@H]3O)cc2)cc1S(=O)(=O)O"
*A* 3.2

---

# procedure_summary: In vivo pharmacokinetic study in rats
# Parameters: species or system Sprague-Dawley rats
# condition: male, Sprague-Dawley, iv; rat plasma, 10 mg kg^−1 i.v.; read-out: mean residence time (converted)
metric_name: MRT (min)
Field: numeric (min). Do not append units.

*Q* I have this compound here, O=C(CCc1ccc(O[C@@H]2O[C@H](CO)[C@H](O)[C@H](O)[C@H]2O)cc1)Nc1ccc(CCc2ccc(NC(=O)CCc3ccc(O[C@@H]4O[C@H](CO)[C@H](O)[C@H](O)[C@H]4O)cc3)cc2S(=O)(=O)O)c(S(=O)(=O)O)c1 [Compound L2] , and I need its recorded MRT.
*A* 41

---

# target_desc: LecA (Pseudomonas aeruginosa, UniProt Q05097)
# Construct: made in house
# procedure_summary: Competitive binding assay based on fluorescence polarization
# Protocol: All synthesized galactosides were then evaluated for LecA inhibition using a competitive binding assay based on fluorescence polarization (Figure S1).[24] Expression and purification of LecA as well as competitive binding by fluorescence polarization was performed as described by Joachim et al..[9] […] Averages and standard deviations were calculated from at least three independent experiments. […] Figure S1: Evaluation of amide divalent LecA ligands in a competitive binding assay based on fluorescence […]
Form field: IC50 (one value per entry).
Note: state the figure and append the unit.

*Q* Would you kindly share the measured IC50 for O=C(CCc1ccc(O[C@@H]2O[C@H](CO)[C@H](O)[C@H](O)[C@H]2O)cc1)Nc1ccc(OCCOc2ccc(NC(=O)CCc3ccc(O[C@@H]4O[C@H](CO)[C@H](O)[C@H](O)[C@H]4O)cc3)cc2)cc1 [Compound D2] ?
*A* 4.5 µM

---

List of IC50 values.
# target_desc: LecA (Pseudomonas aeruginosa)
# Construct: made in house
# procedure_summary: Competitive binding assay based on fluorescence polarization
Give the value, in units of µM, as a plain number.

Use these answered entries as a reference point.
compound	test_result
O=C(/C=C/c1ccc(O[C@@H]2O[C@H](CO)[C@H](O)[C@H](O)[C@H]2O)cc1)Nc1ccc(OCCOc2ccc(NC(=O)/C=C/c3ccc(O[C@@H]4O[C@H](CO)[C@H](O)[C@H](O)[C@H]4O)cc3)cn2)nc1 [Compound H1]	8
O=C(CCc1ccc(O[C@@H]2O[C@H](CO)[C@H](O)[C@H](O)[C@H]2O)cc1)Nc1ccc(OCCCOc2ccc(NC(=O)CCc3ccc(O[C@@H]4O[C@H](CO)[C@H](O)[C@H](O)[C@H]4O)cc3)cn2)nc1 [Compound I2]	3.2
O=C(/C=C/c1ccc(O[C@@H]2O[C@H](CO)[C@H](O)[C@H](O)[C@H]2O)cc1)Nc1ccc(OCOc2ccc(NC(=O)/C=C/c3ccc(O[C@@H]4O[C@H](CO)[C@H](O)[C@H](O)[C@H]4O)cc3)cc2)cc1 [Compound C1]	4.7
O=C(/C=C/c1ccc(O[C@@H]2O[C@H](CO)[C@H](O)[C@H](O)[C@H]2O)cc1)Nc1ccc(OCCCCOc2ccc(NC(=O)/C=C/c3ccc(O[C@@H]4O[C@H](CO)[C@H](O)[C@H](O)[C@H]4O)cc3)cc2)cc1 [Compound F1]	7.9
O=C(/C=C/c1ccc(O[C@@H]2O[C@H](CO)[C@H](O)[C@H](O)[C@H]2O)cc1)Nc1ccc(OCCCOc2ccc(NC(=O)/C=C/c3ccc(O[C@@H]4O[C@H](CO)[C@H](O)[C@H](O)[C@H]4O)cc3)cc2)cc1 [Compound E1]	4.5

*Q* // lookup IC50 for O=C(CCc1ccc(O[C@@H]2O[C@H](CO)[C@H](O)[C@H](O)[C@H]2O)cc1)Nc1ccc(OCOc2ccc(NC(=O)CCc3ccc(O[C@@H]4O[C@H](CO)[C@H](O)[C@H](O)[C@H]4O)cc3)cc2)cc1 [Compound C2]
*A* 4.2

*Q* Record request: IC50 value, item COc1ccc(NC(=O)CCc2ccc(O[C@@H]3O[C@H](CO)[C@H](O)[C@H](O)[C@H]3O)cc2)cc1 [Compound A2]
*A* 18.9

*Q* Dear colleague, I am looking for the recorded IC50 of the following compound: O=C(/C=C/c1ccc(O[C@@H]2O[C@H](CO)[C@H](O)[C@H](O)[C@H]2O)cc1)Nc1ccc(Oc2ccc(NC(=O)/C=C/c3ccc(O[C@@H]4O[C@H](CO)[C@H](O)[C@H](O)[C@H]4O)cc3)cc2)cc1 [Compound B1]
*A* 6.6

*Q* Need IC50, item Cc1ccc(NC(=O)CCc2ccc(O[C@@H]3O[C@H](CO)[C@H](O)[C@H](O)[C@H]3O)cc2)cc1S(=O)(=O)O [Compound K2]
*A* 14.4

*Q* IC50 for O=C(CCc1ccc(O[C@@H]2O[C@H](CO)[C@H](O)[C@H](O)[C@H]2O)cc1)Nc1ccc(Oc2ccc(NC(=O)CCc3ccc(O[C@@H]4O[C@H](CO)[C@H](O)[C@H](O)[C@H]4O)cc3)cc2)cc1 [Compound B2] ?
*A* 3.6

*Q* Please look up its IC50: O=C(/C=C/c1ccc(O[C@@H]2O[C@H](CO)[C@H](O)[C@H](O)[C@H]2O)cc1)Nc1ccc(OCCCOc2ccc(NC(=O)/C=C/c3ccc(O[C@@H]4O[C@H](CO)[C@H](O)[C@H](O)[C@H]4O)cc3)cn2)nc1 [Compound I1]
*A* 6.6

*Q* What does the data say about its IC50? Entry: O=C(CCc1ccc(O[C@@H]2O[C@H](CO)[C@H](O)[C@H](O)[C@H]2O)cc1)Nc1ccc(OCCCCOc2ccc(NC(=O)CCc3ccc(O[C@@H]4O[C@H](CO)[C@H](O)[C@H](O)[C@H]4O)cc3)cc2)cc1 [Compound F2]
*A* 4.4

*Q* IC50 for O=C(/C=C/c1ccc(O[C@@H]2O[C@H](CO)[C@H](O)[C@H](O)[C@H]2O)cc1)Nc1ccc(OCCOc2ccc(NC(=O)/C=C/c3ccc(O[C@@H]4O[C@H](CO)[C@H](O)[C@H](O)[C@H]4O)cc3)cc2)cc1 [Compound D1] ?
*A* 5.6

*Q* # IC50 lookup, item COc1ccc(NC(=O)/C=C/c2ccc(O[C@@H]3O[C@H](CO)[C@H](O)[C@H](O)[C@H]3O)cc2)cc1 [Compound A1]
*A* 18.8

*Q* Name the recorded IC50 for O=C(CCc1ccc(O[C@@H]2O[C@H](CO)[C@H](O)[C@H](O)[C@H]2O)cc1)Nc1ccc(OCCCOc2ccc(NC(=O)CCc3ccc(O[C@@H]4O[C@H](CO)[C@H](O)[C@H](O)[C@H]4O)cc3)cc2)cc1 [Compound E2] .
*A* 3.5

*Q* May I ask what IC50 has been recorded for O=C(CCc1ccc(O[C@@H]2O[C@H](CO)[C@H](O)[C@H](O)[C@H]2O)cc1)Nc1ccc(CCc2ccc(NC(=O)CCc3ccc(O[C@@H]4O[C@H](CO)[C@H](O)[C@H](O)[C@H]4O)cc3)cc2S(=O)(=O)O)c(S(=O)(=O)O)c1 [Compound L2] ?
*A* 4.6

*Q* Entry COc1ccc(NC(=O)CCc2ccc(O[C@@H]3O[C@H](CO)[C@H](O)[C@H](O)[C@H]3O)cc2)cn1 [Compound G2] has what IC50?
*A* 14.3

*Q* Find the recorded IC50 belonging to O=C(CCc1ccc(O[C@@H]2O[C@H](CO)[C@H](O)[C@H](O)[C@H]2O)cc1)Nc1ccc(OCCOc2ccc(NC(=O)CCc3ccc(O[C@@H]4O[C@H](CO)[C@H](O)[C@H](O)[C@H]4O)cc3)cn2)nc1 [Compound H2] and report it.
*A* 4.8

Hello, the source for this data is paper PMC10107299, in case you need it.
